Readings of growth for the listed molecules
Test system: MDA-MB-435 melanoma
Assay: NCI-60 one-dose screen, 48 h (100 = growth as untreated, 0 = no growth, -100 = all killed)
Details: 10 µM unless noted
Compounds without any hit were thinned out: in the full panel of roughly 83,000, 20% have a hit.
Numbers only here, please. The scale is %.

Request: Please look at this molecule and report its growth: `O=c1[nH]c(N2CCOCC2)nc2scc(-c3ccccc3)c12`
Response: 91.7

Request: Kindly indicate its recorded growth. Item: `C/C(=N\NC(=O)Cn1c(-c2ccc(S(C)(=O)=O)cc2)nc2ccccc21)c1ccc(Cl)cc1`
Response: 97.4

Request: Quick one: give measured growth for `Cn1c(Nc2ccc(C(F)(F)F)cc2)nc2cc(Oc3ccnc(-c4ncc(C(F)(F)F)[nH]4)c3)ccc21`
Response: 28.8

Request: Return value of growth for input `Cn1ccnc1C(=O)/C=C/c1ccc(CC(=O)Nc2ccc(C(F)(F)F)cc2)cc1` , no commentary.
Response: 30.6

Request: Entry `COc1cc2c(Nc3ccc(Br)cc3F)ncnc2cc1OCC1CCN(C)CC1` needs its growth filled in; supply it.
Response: -42.8
